# measurement-notes: Dog PK study #1 (Compound A IV and PO, propylene glycol formulation)
# Type: in vivo, beagle dogs
# assay-setup: beagle, dog, plasma, iv, 1 mg/kg, IV 1 mg/kg, 1 h; mean; read-out: Average plasma concentration
readout-kind: concentration at 1 h
In your response, the unit should come after the numeric value.

Input Cn1cc(-c2ccccc2)c(-c2cn(C)c(=O)c3[nH]c(-c4cnn(C(F)(F)F)c4)cc23)cc1=O , output reported concentration at 1 h.
764 ng/mL

* * *

# target-desc: BRD4 BD2 (Homo sapiens)
# Construct: HEK293 cells were transfected using NanoLuc-BRD4-BD1 or NanoLuc-BRD4-BD2 fusion vectors
# measurement-notes: NanoBRET bromodomain assay, NanoLuc-BRD4-BD2 in HEK293 cells
# Format: binding
# assay-setup: IC50 BD1/IC50 BD2; qualitative if an IC50 is at the upper limit
readout-kind: Fold Selectivity BRD4 BD1/BD2

> print(dat)
                            structure.smiles                   readout.kind          endpoint.value
 1  COCCOc1ccc(-c2cn(C)c(=O)cc2-c2cn(C)c(=O)c3[nH]c(-c4cnn(C(F)(F)F)c4)cc23)cc1  Fold Selectivity BRD4 BD1/BD2       xxxx (Fold >1000)
 2  Cn1cc(-c2ccccc2)c(-c2cn(C)c(=O)c3[nH]c(-c4ccc(F)cc4F)cc23)cc1=O  Fold Selectivity BRD4 BD1/BD2       xxxx (Fold >1000)
 3  COCCOc1cccc(-c2cn(C)c(=O)cc2-c2cn(C)c(=O)c3[nH]c(-c4cnn(C(C)C)c4)cc23)c1  Fold Selectivity BRD4 BD1/BD2  xx (Fold >50 and ≤200)
 4  Cn1cc(-c2cccc(CS(C)(=O)=O)c2)c(-c2cn(C)c(=O)c3[nH]c(-c4cnn(C(F)(F)F)c4)cc23)cc1=O  Fold Selectivity BRD4 BD1/BD2  xx (Fold >50 and ≤200)
 5  COc1cccc(-c2cc3c(-c4cc(=O)n(C5CC5)cc4-c4ccccc4)cn(C)c(=O)c3[nH]2)c1F  Fold Selectivity BRD4 BD1/BD2       xxxx (Fold >1000)
 6  Cc1cccc(C)c1Oc1cn(C)c(=O)cc1-c1cn(C)c(=O)c2[nH]c(-c3cnn(C(F)(F)F)c3)cc12  Fold Selectivity BRD4 BD1/BD2       xxxx (Fold >1000)
 7  Cn1cc(-c2ccccc2)c(-c2cn(C)c(=O)c3[nH]c(-c4ccccc4F)cc23)cc1=O  Fold Selectivity BRD4 BD1/BD2       xxxx (Fold >1000)
 8  Cn1cc(-c2ccccc2)c(-c2cn(C)c(=O)c3[nH]c(-c4ccc(C5COC5)cc4)cc23)cc1=O  Fold Selectivity BRD4 BD1/BD2       xxxx (Fold >1000)
 9  Cn1cc(-c2cc(=O)n(C3CC3)cc2-c2ccccc2)c2cc(-c3ccccc3F)[nH]c2c1=O  Fold Selectivity BRD4 BD1/BD2       xxxx (Fold >1000)
10  Cc1cccc(C)c1Oc1cn(C)c(=O)cc1-c1cn(C)c(=O)c2[nH]c(-c3cc(F)cc(F)c3F)cc12  Fold Selectivity BRD4 BD1/BD2       xxxx (Fold >1000)

Lab note: BRD4 BD2 (Homo sapiens) assay, enter Fold Selectivity BRD4 BD1/BD2 for Cc1cccc(C)c1Oc1cn(C)c(=O)cc1-c1cn(C)c(=O)c2[nH]c(-c3cccc(CO)c3F)cc12 here
xxxx (Fold >1000)

Recall the reported Fold Selectivity BRD4 BD1/BD2 of CSCc1ccc(-c2cn(C)c(=O)cc2-c2cn(C)c(=O)c3[nH]c(-c4cnn(C(F)(F)F)c4)cc23)cc1 when tested on BRD4 BD2 (Homo sapiens).
xxxx (Fold >1000)

Find the measured Fold Selectivity BRD4 BD1/BD2 of Cc1cccc(C)c1Oc1cn(C)c(=O)cc1-c1cn(C)c(=O)c2[nH]c(-c3ccc(F)c(F)c3F)cc12 with BRD4 BD2 (Homo sapiens) as test system.
xx (Fold >50 and ≤200)

Look up and report Fold Selectivity BRD4 BD1/BD2, with BRD4 BD2 (Homo sapiens) as system, for COCc1ccc(-c2cc3c(-c4cc(=O)n(C)cc4-c4ccccc4)cn(C)c(=O)c3[nH]2)cc1
xxxx (Fold >1000)

Return reported Fold Selectivity BRD4 BD1/BD2 for target or system BRD4 BD2 (Homo sapiens), item Cc1cc(-c2cc3c(-c4cc(=O)n(C)cc4-c4ccc(F)cc4)cn(C)c(=O)c3[nH]2)cc(C)n1.Cl .
xxxx (Fold >1000)

Under BRD4 BD2 (Homo sapiens): report Fold Selectivity BRD4 BD1/BD2 of Cn1cc(-c2ccccc2)c(-c2cn(C)c(=O)c3[nH]c(-c4c(F)cccc4F)cc23)cc1=O .
xx (Fold >50 and ≤200)

* * *

# target-desc: BRD4 BD2 (Homo sapiens, UniProt O60885)
# Construct: HEK293 cells were transfected using NanoLuc-BRD4-BD1 or NanoLuc-BRD4-BD2 fusion vectors
# measurement-notes: NanoBRET bromodomain assay, NanoLuc-BRD4-BD2 in HEK293 cells
# Type: binding
readout-kind: IC50

Record excerpt, results attached:
> print(dat)
                           structure.smiles  readout.kind  endpoint.value
1  COc1cccc(-c2cc3c(-c4cc(=O)n(C)cc4Oc4c(C)cccc4C)cn(C)c(=O)c3[nH]2)c1F          IC50         < 10 nM
2  Cn1cc(-c2cccc(COC(F)(F)F)c2)c(-c2cn(C)c(=O)c3[nH]c(-c4cnn(C(F)(F)F)c4)cc23)cc1=O          IC50         < 10 nM
3  Cn1cc(-c2cccc(C3COC3)c2)c(-c2cn(C)c(=O)c3[nH]c(-c4ccc(F)cc4F)cc23)cc1=O          IC50     10 to 50 nM

// fetch IC50 given entry Cc1cccc(C)c1Oc1cn(C)c(=O)cc1-c1cn(C)c(=O)c2[nH]c(-c3ccc(F)c(F)c3F)cc12
50 to 200 nM

Please report IC50 for the following molecule: Cn1cc(-c2cccnc2)c(-c2cn(C)c(=O)c3[nH]c(-c4cnn(C(F)(F)F)c4)c(F)c23)cc1=O
10 to 50 nM

* * *

# measurement-notes: Dog PK study #3 (Compound A PO once daily 5 days, 5/10/20 mg/kg; PK, body weight, hematology)
# Assay type: in vivo, beagle dogs
# assay-setup: male, beagle, dog, plasma, po, 10 mg/kg, Day 5, 10 mg/kg dose PO; mean
readout-kind: Tmax

Tell us which Tmax value is on record for Cn1cc(-c2ccccc2)c(-c2cn(C)c(=O)c3[nH]c(-c4cnn(C(F)(F)F)c4)cc23)cc1=O [Compound A]
2 h

* * *

# measurement-notes: Rat PK study #4 (Compound A PO 0.2 and 1.0 mg/kg, propylene glycol formulation)
# Format: in vivo, Lewis rats
# assay-setup: male, Lewis, rat, plasma, po, 1 mg/kg, Lewis rats, PO 1 mg/kg, propylene glycol-based formulation, 6 h, mean of 3 animals
readout-kind: concentration at 6 h (ng/mL)
Write the value in ng/mL as a bare number.

Return concentration at 6 h (reported value) for this compound: Cn1cc(-c2ccccc2)c(-c2cn(C)c(=O)c3[nH]c(-c4cnn(C(F)(F)F)c4)cc23)cc1=O
17.1

* * *

# measurement-notes: Rat PK study #4 (Compound A PO 0.2 and 1.0 mg/kg, propylene glycol formulation)
# Format: in vivo, Lewis rats
# assay-setup: male, Lewis, rat, plasma, po, 0.2 mg/kg, Lewis rats, PO 0.2 mg/kg, propylene glycol-based formulation, 6 h, individual animals
readout-kind: concentration at 6 h (ng/mL)
Provide only the numeric value, understood in ng/mL.

Specify measured concentration at 6 h for Cn1cc(-c2ccccc2)c(-c2cn(C)c(=O)c3[nH]c(-c4cnn(C(F)(F)F)c4)cc23)cc1=O .
4.13

* * *

Quick list: IC50 per entry.
# target-desc: BRD4 BD2 (Homo sapiens, UniProt O60885)
# Construct: HEK293 cells were transfected using NanoLuc-BRD4-BD1 or NanoLuc-BRD4-BD2 fusion vectors
# measurement-notes: NanoBRET bromodomain assay, NanoLuc-BRD4-BD2 in HEK293 cells

// known answers, use as guide
> print(dat)
                           structure.smiles  endpoint.value
1  Cc1cccc(C)c1Oc1cn(C)c(=O)cc1-c1cn(C)c(=O)c2[nH]c(-c3cc(CO)ccc3F)cc12     10 to 50 nM
2  Cc1cc(-c2cc3c(-c4cc(=O)n(C)cc4-c4cccc(S(C)(=O)=O)c4)cn(C)c(=O)c3[nH]2)cc(C)n1    50 to 200 nM
3  Cc1cc(-c2cc3c(-c4cc(=O)n(C)cc4-c4ccccc4Cl)cn(C)c(=O)c3[nH]2)cc(C)n1.Cl     10 to 50 nM
4  Cn1cc(-c2cc(=O)n(CCOC(F)(F)F)cc2-c2ccccc2)c2cc(-c3cnn(C(F)(F)F)c3)[nH]c2c1=O    50 to 200 nM
5  Cc1cccc(C)c1Oc1cn(C)c(=O)cc1-c1cn(C)c(=O)c2[nH]c(-c3cc(F)cc(F)c3F)cc12         < 10 nM

Return IC50 (reported value) for this molecule: CC(C)n1cc(-c2[nH]c3c(=O)n(C)cc(-c4cc(=O)n(C)cc4-c4ccccc4)c3c2F)cn1
10 to 50 nM

Consider the molecule COc1ccc(-c2cn(C)c(=O)cc2-c2cn(C)c(=O)c3[nH]c(-c4cc(C)nc(C)c4)cc23)cc1.Cl and give its recorded IC50.
< 10 nM

Quick one: give measured IC50 for Cn1cc(-c2cccnc2)c(-c2cn(C)c(=O)c3[nH]c(-c4cnn(C(F)(F)F)c4)cc23)cc1=O
200 to 1000 nM

Please list IC50 recorded for the molecule Cn1cc(-c2cc(=O)n(C3COC3)cc2-c2ccccc2)c2cc(-c3cnn(C(F)(F)F)c3)[nH]c2c1=O
10 to 50 nM

Note IC50 for the molecule shown: Cn1cc(-c2c(-c3ccccc3)cn(CCO)c(=O)c2C(F)(F)F)c2cc(-c3cnn(C(F)(F)F)c3)[nH]c2c1=O
200 to 1000 nM

Read off the recorded IC50 for Cn1cc(-c2ccccc2)c(-c2cn(C)c(=O)c3[nH]c(-c4cnn(C(F)(F)F)c4)cc23)cc1=O
< 10 nM

Name the recorded IC50 of the molecule listed here: Cn1cc(-c2ccccc2Cl)c(-c2cn(C)c(=O)c3[nH]c(-c4ccc(F)cc4F)cc23)cc1=O
10 to 50 nM

Provide measured IC50 value, entry: Cn1cc(-c2ccccc2)c(-c2cn(C)c(=O)c3[nH]c(-c4cnn(C(F)(F)F)c4)c(Cl)c23)cc1=O
10 to 50 nM

Entry COCc1ccc(-c2cn(C)c(=O)cc2-c2cn(C)c(=O)c3[nH]c(-c4cnn(C(F)(F)F)c4)cc23)cc1 needs its IC50 filled in; supply it.
< 10 nM

# credit: patent US20260217701A1
